system: HμRELhumanPool 96-well hepatic co-culture; experiment: Hμrel Low Clearance Assay; format: in vitro ADME, human; settings: human hepatic co-culture, 1 μM substrate, 0-72 hr incubation
value.kind: Half-Life (h)

molecule	value.unit	reported
[2H]C([2H])([2H])C(NC(=O)CN1C([2H])([2H])C([2H])([2H])C([2H])(CNC(=O)c2cc(F)cc(Cl)c2)C([2H])([2H])C1([2H])[2H])(C([2H])([2H])[2H])C([2H])([2H])[2H] [Compound 12]	h	45.5

[A] [2H]C([2H])(NC(=O)c1cc(F)cc(Cl)c1)C1CCN(CC(=O)NC(C)(C)C)CC1 [Compound 4]
[B] [2H]C1([2H])N(CC(=O)NC(C)(C)C)C([2H])([2H])C([2H])([2H])C([2H])(CNC(=O)c2cc(F)cc(Cl)c2)C1([2H])[2H] [Compound 1]
Pick one: A or B . Which has the bigger Half-Life number? Indicate which entry you chose by stating its label.
B
(B: 57.17 h, A: 20.5 h)

Source of measurements: patent US20240025852A1
